- assay.target: α4β7 (Homo sapiens, UniProt P13612+P26010)
- Sequence (P13612 34-1032): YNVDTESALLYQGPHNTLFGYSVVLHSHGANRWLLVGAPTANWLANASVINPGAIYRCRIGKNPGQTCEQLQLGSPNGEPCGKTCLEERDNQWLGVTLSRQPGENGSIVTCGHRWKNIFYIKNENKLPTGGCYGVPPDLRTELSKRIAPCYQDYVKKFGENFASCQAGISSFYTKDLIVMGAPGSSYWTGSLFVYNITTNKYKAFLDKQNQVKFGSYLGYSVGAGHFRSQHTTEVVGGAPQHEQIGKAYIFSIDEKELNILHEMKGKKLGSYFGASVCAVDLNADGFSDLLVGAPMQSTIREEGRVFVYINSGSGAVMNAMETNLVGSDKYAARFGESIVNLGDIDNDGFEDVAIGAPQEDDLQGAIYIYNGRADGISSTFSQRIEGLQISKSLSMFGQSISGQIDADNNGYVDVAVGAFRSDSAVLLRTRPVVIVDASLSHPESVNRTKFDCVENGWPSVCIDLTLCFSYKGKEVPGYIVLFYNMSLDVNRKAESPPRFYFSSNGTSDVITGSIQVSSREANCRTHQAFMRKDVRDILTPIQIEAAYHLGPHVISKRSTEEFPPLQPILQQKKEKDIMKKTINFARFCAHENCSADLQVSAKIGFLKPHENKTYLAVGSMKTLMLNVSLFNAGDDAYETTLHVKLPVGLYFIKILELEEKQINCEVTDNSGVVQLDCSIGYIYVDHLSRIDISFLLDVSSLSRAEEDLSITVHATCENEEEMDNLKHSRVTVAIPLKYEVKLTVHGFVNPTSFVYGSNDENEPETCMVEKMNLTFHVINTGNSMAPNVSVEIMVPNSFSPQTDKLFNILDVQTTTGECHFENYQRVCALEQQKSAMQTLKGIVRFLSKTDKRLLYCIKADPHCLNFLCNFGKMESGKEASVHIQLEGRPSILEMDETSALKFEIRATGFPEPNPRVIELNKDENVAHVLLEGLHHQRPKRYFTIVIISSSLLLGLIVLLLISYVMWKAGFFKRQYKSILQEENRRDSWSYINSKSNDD
- Sequence (P26010 20-798): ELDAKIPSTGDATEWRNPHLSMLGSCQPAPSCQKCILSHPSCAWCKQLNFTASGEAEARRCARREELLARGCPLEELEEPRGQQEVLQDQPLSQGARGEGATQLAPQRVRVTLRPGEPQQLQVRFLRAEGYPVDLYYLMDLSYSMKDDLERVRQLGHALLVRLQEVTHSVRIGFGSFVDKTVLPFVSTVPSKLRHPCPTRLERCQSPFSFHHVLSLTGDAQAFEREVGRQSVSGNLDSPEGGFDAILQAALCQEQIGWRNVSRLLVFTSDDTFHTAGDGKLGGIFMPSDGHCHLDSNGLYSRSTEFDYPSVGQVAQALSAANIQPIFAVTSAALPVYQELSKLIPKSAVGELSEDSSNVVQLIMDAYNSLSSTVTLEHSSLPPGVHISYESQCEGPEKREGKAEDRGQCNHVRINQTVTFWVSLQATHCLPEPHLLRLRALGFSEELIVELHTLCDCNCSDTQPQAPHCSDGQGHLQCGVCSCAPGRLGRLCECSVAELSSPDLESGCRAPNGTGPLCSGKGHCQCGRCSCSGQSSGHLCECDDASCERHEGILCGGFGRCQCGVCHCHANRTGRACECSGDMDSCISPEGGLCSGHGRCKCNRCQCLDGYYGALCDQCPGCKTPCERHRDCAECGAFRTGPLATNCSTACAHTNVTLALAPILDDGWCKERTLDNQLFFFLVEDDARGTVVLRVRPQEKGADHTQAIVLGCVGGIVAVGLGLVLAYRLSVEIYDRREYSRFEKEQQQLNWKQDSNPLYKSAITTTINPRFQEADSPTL
- assay.info: α4β7 integrin inhibition, IC50
property.measured: IC50

1. Cc1cccc(C)c1-c1cc(F)cc([C@H](CC(=O)O)NC(=O)Nc2c(O)cc(C)n(C)c2=O)c1 [1-642]	< 20 nM
2. Cc1cccc(C)c1-c1cccc([C@H](CC(=O)O)NC(=O)Nc2c(O)ccn(C)c2=O)c1 [1-502]	< 200 nM
3. Cc1cccc(C)c1-c1ccc(F)c([C@H](CC(=O)O)NC(=O)Nc2c(O)ccn(C)c2=O)c1 [1-590]	< 20 nM
4. O=C(O)C[C@H](NC(=O)Nc1c(O)cc2n(c1=O)CCC2)c1cccc(-c2ccc(F)cc2F)c1 [1-629]	> 200 nM
5. COc1ccc([C@H](CC(=O)O)NC(=O)Nc2c(O)ccn(C)c2=O)cc1-c1c(C)cccc1C [1-533]	< 200 nM
6. Cc1cccc(C)c1-c1cccc([C@H](CC(=O)O)NC(=O)Nc2c(O)cc(C)n(C)c2=O)c1 [1-550]	< 200 nM
7. Cc1cc(O)c(NC(=O)N[C@@H](CC(=O)O)c2cccc(-c3ccc(F)cc3F)c2)c(=O)n1C [1-487]	> 200 nM
8. Cc1cccc(C)c1-c1cccc([C@H](CC(=O)O)NC(=O)Nc2c(O)cc3n(c2=O)CCC3)c1 [1-583]	< 20 nM
9. Cc1cccc(C)c1-c1cc([C@H](CC(=O)O)NC(=O)Nc2c(O)ccn(C)c2=O)ccc1F [1-561]	< 20 nM
10. Cc1noc(C)c1-c1cccc([C@H](CC(=O)O)NC(=O)Nc2c(O)ccn(C)c2=O)c1 [1-560]	> 200 nM
11. Cn1ccc(O)c(NC(=O)N[C@@H](CC(=O)O)c2ccc(-c3ccc(F)cc3F)s2)c1=O [1-562]	> 200 nM

----------
Attribute: IC50
- assay.target: α4β1 (Homo sapiens, UniProt P05556+P13612)
- assay.info: α4β1 integrin inhibition, IC50
- Type: binding
- protocol.conditions: read-out: α4β1 IC50
property.measured: IC50

1. COc1cccc(-c2cc([C@H](CC(=O)O)NC(=O)Nc3c(O)ccn(C)c3=O)ccc2OC(F)(F)F)c1 [1-634]	< 20 nM
2. COc1cccc(-c2cc([C@H](CC(=O)O)NC(=O)Nc3c(O)cc(C)n(C)c3=O)ccc2OC)c1 [1-551]	< 20 nM
3. COc1ccc(-c2cccc([C@H](CC(=O)O)NC(=O)Nc3c(O)c(C)cn(C)c3=O)c2)c(OC)c1 [1-468]	< 200 nM
4. Cc1cc(C)cc(-c2cccc([C@H](CC(=O)O)NC(=O)Nc3c(O)c(C)cn(C)c3=O)c2)c1 [1-454]	< 200 nM
5. Cn1cc(-c2cccc([C@H](CC(=O)O)NC(=O)Nc3c(O)ccn(C)c3=O)c2)cn1 [1-548]	< 20 nM

----------
Attribute: pIC50
- assay.target: α4β1 (Homo sapiens, UniProt P05556+P13612)
- assay.info: α4β1 integrin inhibition, IC50
- Assay type: binding
- protocol.conditions: read-out: α4β1 IC50
pIC50: −log10 of the molar value.
property.measured: pIC50

1) COc1cccc(OC)c1-c1cccc([C@H](CC(=O)O)NC(=O)Nc2c(O)c(C)cn(C)c2=O)c1	> 6.70
2) Cc1ccccc1-c1cccc([C@H](CC(=O)O)NC(=O)Nc2c(O)c(C)cn(C)c2=O)c1	> 6.70
3) Cc1cn(C)c(=O)c(NC(=O)N[C@@H](CC(=O)O)c2cccc(-c3c(C)cccc3C)c2)c1O	> 7.70
4) Cn1ccc(O)c(NC(=O)N[C@@H](CC(=O)O)c2ccc(OC(F)(F)F)c(-c3ccccc3)c2)c1=O	> 6.70
5) Cc1cc(-c2cccc(OC(F)(F)F)c2)cc([C@H](CC(=O)O)NC(=O)Nc2c(O)cc(C)n(C)c2=O)c1	> 7.70
6) Cc1cn(C)c(=O)c(NC(=O)NC(CC(=O)O)c2cccc(-c3cccc(Cl)c3Cl)c2)c1O (stereo not shown)	> 6.70
7) Cc1cn(C)c(=O)c(NC(=O)NC(CC(=O)O)c2cccc(-c3cncnc3)c2)c1O (stereo not shown)	> 6.70
8) Cc1cccc(C)c1-c1cc(F)cc([C@H](CC(=O)O)NC(=O)Nc2c(O)ccn(C)c2=O)c1	> 7.70
9) Cn1ccc(O)c(NC(=O)N[C@@H](CC(=O)O)c2ccc(-c3cccc(F)c3)s2)c1=O	> 6.70
10) Cn1c2c(c(O)c(NC(=O)N[C@@H](CC(=O)O)c3cccc(-c4ccc(F)cc4F)c3)c1=O)CCC2	> 7.70
11) Cc1cn(C)c(=O)c(NC(=O)N[C@@H](CC(=O)O)c2cccc(-c3ccc4c(c3)OCO4)c2)c1O	> 7.70
12) COc1ccc(-c2cccc([C@H](CC(=O)O)NC(=O)Nc3c(O)ccn(C)c3=O)c2)nn1	> 7.70
13) Cc1cccc(C)c1-c1ccc([C@H](CC(=O)O)NC(=O)Nc2c(O)cc(C)n(C)c2=O)s1	> 7.70
14) Cc1cc(O)c(NC(=O)N[C@@H](CC(=O)O)c2cc(F)cc(-c3ccc(F)cc3F)c2)c(=O)n1C	> 7.70
15) Cc1cccc(C)c1-c1ccc([C@H](CC(=O)O)NC(=O)Nc2c(O)ccn(C)c2=O)cc1	> 6.70
16) Cc1cn(C)c(=O)c(NC(=O)N[C@@H](CC(=O)O)c2cccn2-c2ccccc2)c1O	< 6.70
